Values from the supplement of paper PMC10065799

Each item that follows carries a reported phosphorylation enrichment.
Tested on: c-Abl (mouse);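 note: frequency after pTyr selection over input frequency; kinase dosed for 20-30% of maximal phosphorylation in three min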
Test Summary: phosphorylation enrichment, bacterial display (enrichment ratio); higher = better substrate or ligand; peptides without Tyr show the background
Number, no unit, nothing else.

Use the examples below as a reference point.
QLYGPYLRIHA [BSCL2_Y213_A212P]	0.612
AASTDYYKRGD [PDHA1_Y242]	0.615
IGEGTSGVVFK [CDK2_Y15_Y15S_YF]	0.501
NVSILYTASQA [CTNNA1_Y222_P219S]	0.787
VYPATYHPDHW [EFCAB12_Y544]	0.526
IGEGTYRQVFK [CDK13_Y716_G717R_YF]	0.558

[ask] Enter phosphorylation enrichment (test system c-Abl (mouse)) for VTGWGYRKLRE [F11_Y521_D526E];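 note: frequency after pTyr selection over input frequency; kinase dosed for 20-30% of maximal phosphorylation in three min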
[reply] 0.588

[ask] Provide the reported phosphorylation enrichment (system: c-Abl (mouse)) for PSDPSYEDMRE [BMPR1A_Y467];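 note: frequency after pTyr selection over input frequency; kinase dosed for 20-30% of maximal phosphorylation in three min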
[reply] 0.831

[ask] Consider the sequence ALTDNYMYLVI [HAGH_Y61] tested on c-Abl (mouse); state its phosphorylation enrichment.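 Note: 11-residue human phosphosite peptides and single-mutation variants displayed on the E. coli surface, counted by deep sequencing, each peptide's frequency after selection divided by its frequency in the unselected input library.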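 Note: frequency after pTyr selection over input frequency; kinase dosed for 20-30% of maximal phosphorylation in three min.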
[reply] 0.813
